The reported numbers originate from patent US11400138B2.

# Test system: TIMP1 gene
# PROTOCOL_NOTES: TIMP1 gene expression in human fibroblasts (CCD-966SK), qPCR
# Assay type: cell-based
# CONDITION_CONTEXT: 12.5 μg synthesized peptide per 1 mL cell culture medium, 24 h, 37° C.
QUANTITY: TIMP1 gene expression level, folds of Control group

INSERT INTO measurements (substance, result) VALUES
  ('PGQPGLSGVPGADGKPGLPGP (listed as Oreochromis mossambicus) [SEQ ID NO: 8, synthesized peptide of tilapia skin, Collagen, type XVIII]', 'about 5 folds'),
  ('MFGKDVW (listed as Oreochromis mossambicus) [SEQ ID NO: 9, synthesized peptide of N-acetylglucosamine-1-phosphotransferase subunits alpha/beta]', 'about 3 folds'),
  ('ALVQNREGP (listed as Oreochromis mossambicus) [SEQ ID NO: 6, synthesized peptide of tilapia skin, Collagen, type VII]', 'about 3 folds'),
  ('QRGEPGPNGAV (listed as Oreochromis mossambicus) [SEQ ID NO: 11, synthesized peptide of tilapia skin, Procollagen, type I]', 'about 5 folds');
